Assay: Oral solution formulation excipient screening (solubility estimated by HPLC)
Format: physicochemical
Conditions: Vitamin E TPGS, aqueous with cosolvent or surfactant or cyclodextrin
measure: solubility

Exercise: Return solubility for the following compound: N#CC1CN(C[C@@H](Cc2ncnc(O)c2O)c2ccc(C#Cc3ccc(CN4CCOCC4)cc3)cc2)C1
Solution: < 10000 µg/mL

* * *

Test: Oral solution formulation excipient screening (solubility estimated by HPLC)
Format: physicochemical
Conditions: SBEβCD (30% w/v), pH 0.5, pH 0.5, aqueous with cosolvent or surfactant or cyclodextrin
measure: solubility

Exercise: Return solubility for the following compound: N#CC1CN(C[C@@H](Cc2ncnc(O)c2O)c2ccc(C#Cc3ccc(CN4CCOCC4)cc3)cc2)C1
Solution: ≥ 45 mg/mL

* * *

Assay: Oral solution formulation excipient screening (solubility estimated by HPLC)
Type: physicochemical
Conditions: Cremophor RH40, aqueous with cosolvent or surfactant or cyclodextrin
measure: solubility

Exercise: Return solubility for the following compound: N#CC1CN(C[C@@H](Cc2ncnc(O)c2O)c2ccc(C#Cc3ccc(CN4CCOCC4)cc3)cc2)C1
Solution: 900 µg/mL

* * *

Test: Oral solution formulation excipient screening (solubility estimated by HPLC)
Assay type: physicochemical
Settings: Oleic acid, oil or lipid
measure: solubility (µg/mL)
Express your answer in µg/mL, writing the number without its unit.

Exercise: Return solubility for the following compound: N#CC1CN(C[C@@H](Cc2ncnc(O)c2O)c2ccc(C#Cc3ccc(CN4CCOCC4)cc3)cc2)C1
Solution: 480

* * *

Experiment: Oral solution formulation excipient screening (solubility estimated by HPLC)
Type: physicochemical
Conditions: Transcutol, organic solvent or mixture
measure: solubility

Exercise: Return solubility for the following compound: N#CC1CN(C[C@@H](Cc2ncnc(O)c2O)c2ccc(C#Cc3ccc(CN4CCOCC4)cc3)cc2)C1
Solution: < 10000 µg/mL

* * *

Assay: Oral solution formulation excipient screening (solubility estimated by HPLC)
Type: physicochemical
Conditions: Solutol HS 15, aqueous with cosolvent or surfactant or cyclodextrin
measure: solubility (µg/mL)
Express your answer in µg/mL, writing the number without its unit.

Exercise: Return solubility for the following compound: N#CC1CN(C[C@@H](Cc2ncnc(O)c2O)c2ccc(C#Cc3ccc(CN4CCOCC4)cc3)cc2)C1
Solution: 630

* * *

Assay: Oral solution formulation excipient screening (solubility estimated by HPLC)
Assay type: physicochemical
Conditions: Propylene glycol, organic solvent or mixture
measure: solubility

Exercise: Return solubility for the following compound: N#CC1CN(C[C@@H](Cc2ncnc(O)c2O)c2ccc(C#Cc3ccc(CN4CCOCC4)cc3)cc2)C1
Solution: < 10000 µg/mL

* * *

Test: Oral solution formulation excipient screening (solubility estimated by HPLC)
Assay type: physicochemical
Details: Maisine CC, oil or lipid
measure: solubility (µg/mL)
Express your answer in µg/mL, writing the number without its unit.

Exercise: Return solubility for the following compound: N#CC1CN(C[C@@H](Cc2ncnc(O)c2O)c2ccc(C#Cc3ccc(CN4CCOCC4)cc3)cc2)C1
Solution: 130

* * *

Experiment: Oral solution formulation excipient screening (solubility estimated by HPLC)
Assay type: physicochemical
Conditions: Capmul MCM, oil or lipid
measure: solubility (µg/mL)
Express your answer in µg/mL, writing the number without its unit.

Exercise: Return solubility for the following compound: N#CC1CN(C[C@@H](Cc2ncnc(O)c2O)c2ccc(C#Cc3ccc(CN4CCOCC4)cc3)cc2)C1
Solution: 330

* * *

Assay: Oral solution formulation excipient screening (solubility estimated by HPLC)
Type: physicochemical
Conditions: Transcutol (pH 0.5), pH 0.5, organic solvent or mixture
measure: solubility

Exercise: Return solubility for the following compound: N#CC1CN(C[C@@H](Cc2ncnc(O)c2O)c2ccc(C#Cc3ccc(CN4CCOCC4)cc3)cc2)C1 [Compound A]
Solution: ≥ 10000 µg/mL
